Catalogue of RL Ox avg readings, one per entry.
System: vraSR promoter (Pvra-lux reporter in strain 923)
Type: cell-based, Staphylococcus aureus
Conditions: Top 40 library, with oxacillin, compound at maximum non-GI conc
Experimental: In the secondary screen each microtiter plate contained either cells in TSB alone (16 replicates), cells with oxacillin (2 μg/mL, 31 replicates), or cells with test compound and oxacillin (2 μg/mL, 49 wells). Each compound was assayed in four separate biological replicates. […]
Measured Parameter: RL Ox avg

INSERT INTO assay_data (compound, measured_parameter, result) VALUES
  ('O=S(=O)(Nc1cccc(-c2nc3ccccc3s2)c1)c1ccc(Cl)s1', 'RL Ox avg', 0.04),
  ('O=C(Nc1cccc(C(F)(F)F)c1)N1CCN(c2ccc(Nc3cccnc3)nn2)CC1', 'RL Ox avg', 0.72),
  ('Cc1ccc(S(=O)(=O)Nc2ccccc2C(=O)Nc2nc3c(C)ccc(Cl)c3s2)cc1', 'RL Ox avg', 0.43),
  ('Cc1ccc(-c2nnc(NC(=O)c3ccc(S(=O)(=O)N4CCc5ccccc5C4)cc3)o2)c(C)c1', 'RL Ox avg', 0.33),
  ('O=C(Nc1cccc(C(F)(F)F)c1)N1CCN(c2ccc3nncn3n2)CC1', 'RL Ox avg', 0.67),
  ('O=C(Nc1nnc(-c2ccccc2Cl)o1)c1ccc2ccccc2c1', 'RL Ox avg', 0.08),
  ('Clc1ccc(-c2csc3ncnc(Sc4nnnn4-c4ccccc4)c23)cc1', 'RL Ox avg', '−0.01'),
  ('O=C(Nc1ccccc1-c1nc2ccccc2[nH]1)c1ccccc1Br', 'RL Ox avg', 0.25),
  ('Fc1ccc(-c2csc3ncnc(Sc4nnnn4-c4ccccc4)c23)cc1', 'RL Ox avg', 0.04),
  ('CC(C)(C)c1csc(NC(=O)c2cccc(NS(=O)(=O)c3ccc(F)cc3)c2)n1', 'RL Ox avg', 0.28),
  ('Cc1ccc(S(=O)(=O)Nc2ccccc2C(=O)Nc2nc3c(Cl)ccc(Cl)c3s2)cc1', 'RL Ox avg', 0.20),
  ('CC(=O)Nc1ccc(Nc2cc(C(C)(C)C)nc3c(-c4ccccc4)c(C)nn23)cc1', 'RL Ox avg', 0.05),
  ('CC1CCN(C(C)CNC(=O)Nc2ccc(C(F)(F)F)cc2)CC1 (stereo not drawn)', 'RL Ox avg', 0.62),
  ('CN1CCN(c2nc(Nc3ccc(SC(F)F)cc3)c3cnn(-c4ccccc4)c3n2)CC1', 'RL Ox avg', 0.11),
  ('Cc1ccc(Nc2nc(N3CCN(Cc4ccccc4)CC3)nc3nccnc23)cc1C', 'RL Ox avg', 0.01),
  ('O=C(Nc1ccc(OC(F)(F)F)cc1)N1CCN(c2cc(N3CCCC3)ncn2)CC1', 'RL Ox avg', 0.71),
  ('Oc1ccc(C2(c3cccc(Br)c3)CCCCC2)cc1', 'RL Ox avg', 0.17),
  ('Cc1nnsc1C(=O)Nc1nc(-c2cc3ccccc3o2)cs1', 'RL Ox avg', 0.01);

----------
tested on: test strain (923 pPvra-lux); assay: Growth inhibition by compound alone (maximum non-growth-inhibitory concentration); format: cell-based, Staphylococcus aureus; conditions: compound alone; maximum concentration where it did NOT inhibit growth
Measured Parameter: maximum non-GI conc (µg/mL)

INSERT INTO assay_data (compound, readout_number) VALUES
  ('COc1ccc(Cl)c2sc(NC(=O)c3ccccc3NS(=O)(=O)c3ccc(F)cc3)nc12', 40),
  ('Cc1ccc(Nc2nc(N3CCN(Cc4ccccc4)CC3)nc3nccnc23)cc1C', 400),
  ('O=C(Nc1nnc(-c2ccc(OC(F)(F)F)cc2)o1)C1(c2cccs2)CCCC1', 4),
  ('Fc1ccc(-c2csc3ncnc(Sc4nnnn4-c4ccccc4)c23)cc1', 400),
  ('CC(=O)Nc1ccc(Nc2cc(C(C)(C)C)nc3c(-c4ccccc4)c(C)nn23)cc1', 400),
  ('O=C(Nc1cccc(C(F)(F)F)c1)N1CCN(c2ccc3nncn3n2)CC1', 40),
  ('OC(c1ccccc1)c1nc2ccccc2n1Cc1ccc(Cl)c(Cl)c1 (stereo not drawn)', 400),
  ('CSc1cccc(-c2nnc(NC(=O)c3nc4ccccc4s3)o2)c1', 40),
  ('CC1CCN(C(C)CNC(=O)Nc2ccc(C(F)(F)F)cc2)CC1 (stereo not drawn)', 40);

----------
test system: test strain 923 pPvra-lux; test: Secondary screen / synergy confirmation of Top 40, relative growth with oxacillin; assay type: cell-based, Staphylococcus aureus; conditions: Top 40 library, compound at maximum non-GI conc
Measured Parameter: RG Ox avg

INSERT INTO results (compound, measured_parameter, readout_number) VALUES
  ('CC1CC1c1ccc(CCC(=O)Nc2ccc(Cl)c(Cl)c2)o1 (stereo not drawn)', 'RG Ox avg', 1.00),
  ('Cn1cccc1C(CNC(=O)Nc1ccc(Cl)c(Cl)c1)N1CCOCC1 (stereo not drawn)', 'RG Ox avg', 0.99),
  ('O=C(Nc1ccc(OC(F)(F)F)cc1)N1CCN(c2cc(N3CCCC3)ncn2)CC1', 'RG Ox avg', 1.00);

----------
pKd: −log10 of the molar value.
VraR (Staphylococcus aureus, UniProt Q7A4R9): recorded pKd for assorted compounds
Sequence (Q7A4R9 whole entry): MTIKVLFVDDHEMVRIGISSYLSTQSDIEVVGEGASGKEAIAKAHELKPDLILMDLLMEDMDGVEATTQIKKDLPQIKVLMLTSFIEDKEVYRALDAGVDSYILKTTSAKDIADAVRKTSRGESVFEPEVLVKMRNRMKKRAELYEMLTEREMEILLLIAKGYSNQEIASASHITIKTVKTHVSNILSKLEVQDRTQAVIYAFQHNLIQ
Measured Parameter: pKd

INSERT INTO results (compound, result) VALUES
  ('O=C(Nc1nnc(-c2ccccc2Cl)o1)c1cccc(Oc2ccccc2)c1 [F1374-0081]', '< 4.00'),
  ('Cc1ccc(-c2nnc(NC(=O)c3ccccc3Cl)o2)c(C)c1 [F2518-0150]', '< 4.00'),
  ('COc1cccc(-c2nnc(NC(=O)c3cccc(F)c3)o2)c1 [F1374-0327]', '< 4.00'),
  ('O=C(Nc1nnc(-c2ccc(Br)cc2)o1)c1sc2ccccc2c1Cl [F2518-0484]', '< 4.00'),
  ('O=C(Nc1nnc(-c2ccc(Br)cc2)o1)c1cccc(C(F)(F)F)c1 [F2518-0477]', '< 4.00'),
  ('Cc1ccc(C)c(-c2nnc(NC(=O)c3nc4ccccc4s3)o2)c1 [F2518-0327]', 4.81);

----------
tested on: vraSR promoter (Pvra-lux reporter in strain 923); type: cell-based, Staphylococcus aureus; conditions: Top 40 library, with oxacillin, compound at maximum non-GI conc
RL Ox avg less than 0.4 is TRUE; RL Ox avg greater than or equal to 0.4 is FALSE.

INSERT INTO measurements (molecule, study_target, group_label) VALUES
  ('O=C(Nc1nnc(C2=COCCO2)o1)c1cccc(Br)c1 [F0608-0146]', 'vraSR promoter (Pvra-lux reporter in strain 923)', 'FALSE'),
  ('CSc1cccc2sc(NC(=O)c3ccccc3NS(=O)(=O)c3ccc(C)cc3)nc12 [F2730-0247]', 'vraSR promoter (Pvra-lux reporter in strain 923)', 'TRUE'),
  ('O=C(Nc1ccc(Cl)c(Cl)c1)N(Cc1ccsc1)Cc1ccco1 [F5854-2599]', 'vraSR promoter (Pvra-lux reporter in strain 923)', 'FALSE'),
  ('Fc1cccc(Nc2nc(Nc3ccc(F)c(Cl)c3)nc(N3CCOCC3)n2)c1 [F2703-0396]', 'vraSR promoter (Pvra-lux reporter in strain 923)', 'TRUE'),
  ('O=C(Nc1ccc(Cl)c(C(F)(F)F)c1)N1CCN(c2cc(-n3cccn3)ncn2)CC1 [F5562-0130]', 'vraSR promoter (Pvra-lux reporter in strain 923)', 'FALSE'),
  ('O=C(Nc1nc(-c2ccccn2)cs1)c1ccc(Br)s1 [F0447-0273]', 'vraSR promoter (Pvra-lux reporter in strain 923)', 'TRUE'),
  ('OC(c1ccccc1)c1nc2ccccc2n1Cc1ccc(Cl)c(Cl)c1 (stereo not shown) [F3068-0037]', 'vraSR promoter (Pvra-lux reporter in strain 923)', 'TRUE'),
  ('Cc1cc(SCC(=O)Nc2cccc(C(F)(F)F)c2)n2ncc(-c3ccccc3)c2n1 [F3305-0354]', 'vraSR promoter (Pvra-lux reporter in strain 923)', 'FALSE'),
  ('O=C(Nc1ccc(Cl)c(Cl)c1)Nc1ccc2cn[nH]c2c1 [F5882-3050]', 'vraSR promoter (Pvra-lux reporter in strain 923)', 'TRUE'),
  ('Cn1cccc1C(CNC(=O)Nc1ccc(Cl)c(Cl)c1)N1CCOCC1 (stereo not shown) [F5833-1551]', 'vraSR promoter (Pvra-lux reporter in strain 923)', 'FALSE'),
  ('O=C(CCCSc1ccc(Cl)cc1)Nc1nc(-c2ccccn2)cs1 [F2813-0883]', 'vraSR promoter (Pvra-lux reporter in strain 923)', 'FALSE'),
  ('CC1CC1c1ccc(CCC(=O)Nc2ccc(Cl)c(Cl)c2)o1 (stereo not shown) [F1118-0378]', 'vraSR promoter (Pvra-lux reporter in strain 923)', 'FALSE'),
  ('CSc1cccc(-c2nnc(NC(=O)c3nc4ccccc4s3)o2)c1 [F2645-0188]', 'vraSR promoter (Pvra-lux reporter in strain 923)', 'TRUE'),
  ('Cc1ccc(S(=O)(=O)Nc2ccccc2C(=O)Nc2nc3c(C)ccc(C)c3s2)cc1 [F1813-0712]', 'vraSR promoter (Pvra-lux reporter in strain 923)', 'TRUE'),
  ('COc1ccc(Cl)c2sc(NC(=O)c3ccccc3NS(=O)(=O)c3ccc(F)cc3)nc12 [F2708-0138]', 'vraSR promoter (Pvra-lux reporter in strain 923)', 'FALSE');
